Recorded protein stability index by entry
B1: KRT33B (parent)
chain: YQSYFKTIEELQQKILCSKSENAR

variants of: B1; test: protein stability index of a GFP-peptide fusion (GPS, HEK-293T) (PSI 1-6); higher = more stable; settings: c terminus: a fixed tail appended;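 further: lentivirally expressed fusions sorted by FACS into six bins by GFP to DsRed ratio, PSI derived from sequencing read proportions per bin multiplied by bin number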
// no unit string in output, number only

- R24N: 2.02
- Y1P: 3.84
- K14M: 2.28
- F5M: 3.48
- E10P: 2.39
- Y1W: 2.98
- A23R: 2.13
- Y1H: 3.04

Input: Input Y1I , output reported protein stability index.
Output: 2.2

Input: Quick one: give measured protein stability index for E10A
Output: 2.02

Input: Give the reported value of protein stability index for this record: A23P
Output: 1.68

Input: Supply reported protein stability index belonging to this variant: L11Y
Output: 1.8

Origin of values: the supplement of paper PMC10567573
